biological target: Large subunit-rSCFV5 fusion protein; test: cell-based or functional assay
Sequence (chain, as listed by the source): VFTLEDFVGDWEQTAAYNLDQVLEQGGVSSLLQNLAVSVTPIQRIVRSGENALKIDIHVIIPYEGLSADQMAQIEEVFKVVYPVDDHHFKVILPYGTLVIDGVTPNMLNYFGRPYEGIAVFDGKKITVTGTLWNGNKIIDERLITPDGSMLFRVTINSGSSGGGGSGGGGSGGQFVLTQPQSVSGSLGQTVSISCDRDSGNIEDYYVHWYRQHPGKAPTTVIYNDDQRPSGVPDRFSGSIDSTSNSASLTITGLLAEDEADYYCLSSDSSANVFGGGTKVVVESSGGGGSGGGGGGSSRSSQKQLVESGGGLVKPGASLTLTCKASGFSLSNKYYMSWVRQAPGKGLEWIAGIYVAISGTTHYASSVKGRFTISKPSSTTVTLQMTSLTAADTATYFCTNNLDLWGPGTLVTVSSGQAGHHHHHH
attributeMeasured: RLU, PCT- (RLU)
Numbers only, in RLU.

VEGYRLFERVL (peptide, part only; not given: rSCFV18 scFv part, part only) [rSCFV18-small subunit mutant fusion protein RB150]; 1630
VEGWRLFDRKS (peptide, part only; not given: rSCFV18 scFv part, part only) [rSCFV18-small subunit mutant fusion protein RC-232]; 3180
VSGYRIFDKKS (peptide, part only; not given: rSCFV18 scFv part, part only) [rSCFV18-small subunit mutant fusion protein RC-044]; 1300

Fill in reported RLU, PCT- for this entry: VSGWRIFDKKS (peptide, part only; not given: rSCFV18 scFv part, part only) [rSCFV18-small subunit mutant fusion protein RC-124]
1230

FYI, the data here is from patent EP4700040A1.
